# ASSAY_SYSTEM: HLA-A*02:01 (Homo sapiens, UniProt P04439, D140Y/D185E/D98H/E176V/E277Q/G131W/G231S/I119V/I121R/I166T/I218V/L300P/L318F/N151K/N90K/P208A/P217A/Q86G/Q94H/R138H/R169H/T345S)
# MEASUREMENT_NOTES: MHC binding assay: UV-ligand exchange with beta2m ELISA (exchange yield)
# CONDITION_INFO: binding to HLA-A*02:01, β2m ELISA
METRIC: Peptide exchange (MHC class I binding score, peptide exchange yield)

Examples with answers:
- SUBSTANCE: "189 (ALQRKLPYV; listed as Homo sapiens) [compound 189]"
  RESULT: "“+++” (≥50 = +++)"
- SUBSTANCE: "149 (NLLELFVQL; listed as Homo sapiens) [compound 149]"
  RESULT: "“+++” (≥50 = +++)"
- SUBSTANCE: "362 (TLYGLSVLL; listed as Homo sapiens) [compound 362]"
  RESULT: "“+++” (≥50 = +++)"
- SUBSTANCE: "389 (LLADVTHLL; listed as Homo sapiens) [compound 389]"
  RESULT: "“++” (≥20% = ++)"

Query :: Which Peptide exchange (MHC class I binding score, peptide exchange yield) reading was recorded for the substance 570 (ALANQIPTV; listed as Homo sapiens) [compound 570] ?
Result :: “++” (≥20% = ++)

====

# ASSAY_SYSTEM: HLA-A*02:01 (Homo sapiens, UniProt P04439, D140Y/D185E/D98H/E176V/E277Q/G131W/G231S/I119V/I121R/I166T/I218V/L300P/L318F/N151K/N90K/P208A/P217A/Q86G/Q94H/R138H/R169H/T345S)
# MEASUREMENT_NOTES: MHC binding assay: UV-ligand exchange with beta2m ELISA (exchange yield)
# CONDITION_INFO: binding to HLA-A*02:01, β2m ELISA
METRIC: Peptide exchange (MHC class I binding score, peptide exchange yield)

Solved entries (count: 6):
- SUBSTANCE: "8 (FTLGNVVGMYL; listed as Homo sapiens) [compound 8]"
  RESULT: "“++++” (≥75% = ++++)"
- SUBSTANCE: "95 (SVIPQIQKV; listed as Homo sapiens) [compound 95]"
  RESULT: "“+++” (≥50 = +++)"
- SUBSTANCE: "59 (IMEDIILTL; listed as Homo sapiens) [compound 59]"
  RESULT: "“+++” (≥50 = +++)"
- SUBSTANCE: "585 (ALWDLAADKQTL; listed as Homo sapiens) [compound 585]"
  RESULT: "“++++” (≥75% = ++++)"
- SUBSTANCE: "139 (SVMEVNSGIYRV; listed as Homo sapiens) [compound 139]"
  RESULT: "“+++” (≥50 = +++)"
- SUBSTANCE: "583 (ILANDGVLLAA; listed as Homo sapiens) [compound 583]"
  RESULT: "“+++” (≥50 = +++)"

Query :: Value lookup for Peptide exchange (MHC class I binding score, peptide exchange yield); key = 190 (FLSSLTETI; listed as Homo sapiens) [compound 190]
Result :: “+++” (≥50 = +++)

Query :: // same read-out, input: 312 (IISDLTIAL; listed as Homo sapiens) [compound 312]
Result :: “+++” (≥50 = +++)

Query :: Also 301 (FLVEDLVDSL; listed as Homo sapiens) [compound 301] ?
Result :: “+++” (≥50 = +++)

====

# ASSAY_SYSTEM: HLA-A*02:01 (Homo sapiens, UniProt P04439, D140Y/D185E/D98H/E176V/E277Q/G131W/G231S/I119V/I121R/I166T/I218V/L300P/L318F/N151K/N90K/P208A/P217A/Q86G/Q94H/R138H/R169H/T345S)
# MEASUREMENT_NOTES: MHC binding assay: UV-ligand exchange with beta2m ELISA (exchange yield)
# CONDITION_INFO: binding to HLA-A*02:01, β2m ELISA
METRIC: Peptide exchange (MHC class I binding score, peptide exchange yield)

A selection of reference data follows.
- SUBSTANCE: "474 (YLDPALELGPRNV; listed as Homo sapiens) [compound 474]"
  RESULT: "“+++” (≥50 = +++)"
- SUBSTANCE: "513 (SLWPSPEQL; listed as Homo sapiens) [compound 513]"
  RESULT: "“++” (≥20% = ++)"
- SUBSTANCE: "524 (ALIENLTHQI; listed as Homo sapiens) [compound 524]"
  RESULT: "“++” (≥20% = ++)"
- SUBSTANCE: "20 (RMIEYFIDV; listed as Homo sapiens) [compound 20]"
  RESULT: "“+++” (≥50 = +++)"
- SUBSTANCE: "304 (MTLGQIYYL; listed as Homo sapiens) [compound 304]"
  RESULT: "“+++” (≥50 = +++)"

Query :: Quick one: Peptide exchange (MHC class I binding score, peptide exchange yield) of 506 (KLLGKVETA; listed as Homo sapiens) [compound 506] ?
Result :: “+++” (≥50 = +++)

Query :: Can you handle 246 (LLWEVVSQL; listed as Homo sapiens) [compound 246] next?
Result :: “+++” (≥50 = +++)

Query :: Check 70 (GLLDYPVGV; listed as Homo sapiens) [compound 70] too.
Result :: “+++” (≥50 = +++)

====

# ASSAY_SYSTEM: HLA-A*02:01 (Homo sapiens, UniProt P04439, D140Y/D185E/D98H/E176V/E277Q/G131W/G231S/I119V/I121R/I166T/I218V/L300P/L318F/N151K/N90K/P208A/P217A/Q86G/Q94H/R138H/R169H/T345S)
# MEASUREMENT_NOTES: MHC binding assay: UV-ligand exchange with beta2m ELISA (exchange yield)
# CONDITION_INFO: binding to HLA-A*02:01, β2m ELISA
METRIC: Peptide exchange (MHC class I binding score, peptide exchange yield)

The following substances have reported results that may help.
- SUBSTANCE: "462 (KLAKQPETV; listed as Homo sapiens) [compound 462]"
  RESULT: "“+++” (≥50 = +++)"
- SUBSTANCE: "275 (YLVYILNEL; listed as Homo sapiens) [compound 275]"
  RESULT: "“++” (≥20% = ++)"
- SUBSTANCE: "386 (ILFRYPLTI; listed as Homo sapiens) [compound 386]"
  RESULT: "“+++” (≥50 = +++)"
- SUBSTANCE: "201 (RLVDYLEGI; listed as Homo sapiens) [compound 201]"
  RESULT: "“+++” (≥50 = +++)"
- SUBSTANCE: "141 (YLDFSNNRL; listed as Homo sapiens) [compound 141]"
  RESULT: "“++” (≥20% = ++)"

Query :: So what's the measured Peptide exchange (MHC class I binding score, peptide exchange yield) for this one? 185 (FLIDDKGYTL; listed as Homo sapiens) [compound 185]
Result :: “++” (≥20% = ++)

Query :: Also 493 (GLLGEKTQDLIGV; listed as Homo sapiens) [compound 493] , if possible.
Result :: “+++” (≥50 = +++)

Query :: Another substance: 155 (RVANLHFPSV; listed as Homo sapiens) [compound 155]
Result :: “+++” (≥50 = +++)

====

# ASSAY_SYSTEM: HLA-A*02:01 (Homo sapiens, UniProt P04439, D140Y/D185E/D98H/E176V/E277Q/G131W/G231S/I119V/I121R/I166T/I218V/L300P/L318F/N151K/N90K/P208A/P217A/Q86G/Q94H/R138H/R169H/T345S)
# MEASUREMENT_NOTES: MHC binding assay: UV-ligand exchange with beta2m ELISA (exchange yield)
# CONDITION_INFO: binding to HLA-A*02:01, β2m ELISA
METRIC: Peptide exchange (MHC class I binding score, peptide exchange yield)

Reference set (7 entries):
- SUBSTANCE: "113 (GLLPTPLFGV; listed as Homo sapiens) [compound 113]"
  RESULT: "“+++” (≥50 = +++)"
- SUBSTANCE: "273 (NLFQSVREV; listed as Homo sapiens) [compound 273]"
  RESULT: "“++” (≥20% = ++)"
- SUBSTANCE: "195 (GLFADLLPRL; listed as Homo sapiens) [compound 195]"
  RESULT: "“+++” (≥50 = +++)"
- SUBSTANCE: "344 (YLQDQHLLLTV; listed as Homo sapiens) [compound 344]"
  RESULT: "“+++” (≥50 = +++)"
- SUBSTANCE: "376 (AMFESSQNVLL; listed as Homo sapiens) [compound 376]"
  RESULT: "“++” (≥20% = ++)"
- SUBSTANCE: "617 (ALMYESEKVGV; listed as Homo sapiens) [compound 617]"
  RESULT: "“+++” (≥50 = +++)"
- SUBSTANCE: "102 (YLFESEGLVL; listed as Homo sapiens) [compound 102]"
  RESULT: "“+++” (≥50 = +++)"

Please examine the following record next.
Query :: Given 295 (VLDRESPNV; listed as Homo sapiens) [compound 295] , state its recorded Peptide exchange (MHC class I binding score, peptide exchange yield).
Result :: “+++” (≥50 = +++)
